B1: Twister Ribozyme (parent)
chain: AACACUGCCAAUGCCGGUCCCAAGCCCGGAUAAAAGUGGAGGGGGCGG

Variants of: B1
experimentSummary: self-cleavage, relative activity (ratio to wild type); higher = more cleavage; co-transcriptional
readoutType: self-cleavage

> print(dat)
   mutantdesignation    readouttype  result
1            C5A G7C  self-cleavage  0.0608
2          C27G G38A  self-cleavage  0.0803
3          A32C G42A  self-cleavage   0.289
4          G29A G41A  self-cleavage   0.452
5          G13C G43U  self-cleavage   0.128
6          U31C G42A  self-cleavage   0.363
7          G13A G38U  self-cleavage   0.463
8           C9A A10C  self-cleavage   0.574
9            A1U C8U  self-cleavage   0.087
